Measured IC50 by item
# Target System: ACSS2 (Homo sapiens, UniProt Q9NR19)
# Sequence (Q9NR19 whole entry): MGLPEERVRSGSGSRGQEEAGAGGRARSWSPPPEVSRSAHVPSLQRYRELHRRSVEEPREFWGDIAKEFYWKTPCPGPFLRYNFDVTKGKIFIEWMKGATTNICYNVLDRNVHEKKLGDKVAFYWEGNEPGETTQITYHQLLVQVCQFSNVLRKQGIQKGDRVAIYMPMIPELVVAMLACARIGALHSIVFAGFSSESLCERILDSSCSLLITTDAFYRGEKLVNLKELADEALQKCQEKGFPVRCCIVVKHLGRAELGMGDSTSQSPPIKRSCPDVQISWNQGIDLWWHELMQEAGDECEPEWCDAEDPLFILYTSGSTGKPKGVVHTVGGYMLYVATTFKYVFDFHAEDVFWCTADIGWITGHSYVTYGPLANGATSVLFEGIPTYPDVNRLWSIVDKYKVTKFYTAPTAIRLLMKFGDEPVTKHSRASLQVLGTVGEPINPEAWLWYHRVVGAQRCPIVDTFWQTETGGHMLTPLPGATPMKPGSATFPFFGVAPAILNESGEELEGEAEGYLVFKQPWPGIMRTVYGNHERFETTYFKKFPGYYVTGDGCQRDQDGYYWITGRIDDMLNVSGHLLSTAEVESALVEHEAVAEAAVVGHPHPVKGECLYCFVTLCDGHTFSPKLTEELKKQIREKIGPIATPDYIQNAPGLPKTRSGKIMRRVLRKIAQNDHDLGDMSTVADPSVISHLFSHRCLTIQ
# Method: biochemical

{"columns": ["Compound", "IC50"],
 "data": [
  ["CC1=NN(c2cccc(S(=O)(=O)N(C)C)c2)C(=O)C1C(=O)Nc1cccc(C(C)(F)F)c1 (stereo not drawn) [compound 252]", "0.01 to 6 nM"],
  ["CC1=NN(c2ccc(-c3nnn[nH]3)cc2)C(=O)C1C(=O)Nc1cccc(C(C)(F)F)c1 (stereo not drawn) [compound 297]", "0.01 to 6 nM"],
  ["CC1=NN(c2ccccc2)C(=O)C1C(=O)NC(C)C (stereo not drawn) [compound 200]", "> 100000 nM"],
  ["CC(=O)NS(=O)(=O)c1cccc(N2N=C(C)C(C(=O)Nc3cccc(C(C)(F)F)c3)C2=O)c1 (stereo not drawn) [compound 293]", "6 to 100 nM"],
  ["COc1cc(N2N=C(C)C(C(=O)Nc3cccc(C(C)(F)F)c3)C2=O)ccc1OC(F)F (stereo not drawn) [compound 454]", "0.01 to 6 nM"],
  ["CC1=NN(c2cccc(-c3ncc(C)o3)c2)C(=O)C1C(=O)Nc1cccc(C(C)(F)F)c1 (stereo not drawn) [compound 229]", "0.01 to 6 nM"],
  ["CC1=NN(c2ccc(OC3COC3)cc2)C(=O)C1C(=O)Nc1cccc(C(C)(F)F)c1 (stereo not drawn) [compound 439]", "0.01 to 6 nM"],
  ["CC1=NN(c2ccc(OC(F)F)cc2)C(=O)C1C(=O)N(C)c1cccc(Cl)c1 (stereo not drawn) [compound 395]", "100 to 1000 nM"],
  ["CC1=NN(c2ccccc2)C(=O)C1C(=O)Nc1cccc(-c2cnccn2)c1 (stereo not drawn) [compound 109]", "0.01 to 6 nM"]
]}

====

# Target System: ACSS2 (Homo sapiens)
# Method: biochemical
Assay Metric: IC50

{"columns": ["Compound", "Assay Metric", "Measured"],
 "data": [
  ["CC1=NN(c2ccccc2)C(=O)C1C(=O)Nc1cccc(C(C)(C)C)c1 (stereo not drawn)", "IC50", "100 to 1000 nM"],
  ["CC1=NN(c2ccccc2)C(=O)C1C(=O)Nc1cccc2ccccc12 (stereo not drawn)", "IC50", "1000 to 100000 nM"],
  ["CC1=NN(c2ccccc2)C(=O)C1C(=O)Nc1ccccc1 (stereo not drawn)", "IC50", "1000 to 100000 nM"]
]}

====

# Target System: UniProt:Q9NR19
# Method: biochemical
pIC50: −log10 of the molar value.
Listing of recorded pIC50 by entry.

{"columns": ["Molecule", "pIC50"],
 "data": [
  ["COc1ccc(NC(=O)C2C(=O)N(c3ccccc3)N=C2C)cc1 (stereo not drawn)", "4.00 to 6.00"],
  ["CC1=NN(c2ccncc2)C(=O)C1C(=O)Nc1ccccc1 (stereo not drawn)", "< 4.00"],
  ["CC1=NN(c2cc(-c3ccccc3)cc(-c3ccsc3)c2)C(=O)C1C(=O)Nc1cccc(C(C)(F)F)c1 (stereo not drawn)", "8.22 to 11.00"],
  ["CC1=NN(c2ccc(OC(F)(F)F)cc2)C(=O)C1C(=O)Nc1cc(C(C)(F)F)cs1 (stereo not drawn)", "7.00 to 8.22"],
  ["CC1=NN(c2ccccc2)C(=O)C1C(=O)Nc1cccc(C(=O)N(C)C)c1 (stereo not drawn)", "8.22 to 11.00"],
  ["CCc1ccc(NC(=O)C2C(=O)N(c3ccccc3)N=C2C)s1 (stereo not drawn)", "6.00 to 7.00"],
  ["COc1ccc(N2N=C(C)C(C(=O)NCc3ccccc3)C2=O)cc1 (stereo not drawn)", "6.00 to 7.00"],
  ["CC1=NN(c2ccc(OC(F)F)c(-c3noc(C)n3)c2)C(=O)C1C(=O)Nc1cccc(C(C)(F)F)c1 (stereo not drawn)", "8.22 to 11.00"],
  ["CCOC(=O)c1cc(NC(=O)C2C(=O)N(c3ccccc3)N=C2C)ccn1 (stereo not drawn)", "6.00 to 7.00"],
  ["CC1=NN(c2ccc3ccn(C)c3c2)C(=O)C1C(=O)Nc1cccc(C(C)(F)F)c1 (stereo not drawn)", "8.22 to 11.00"],
  ["CC1=NN(c2cccc(C(F)(F)F)c2)C(=O)C1C(=O)Nc1cccc(-c2ncc[nH]2)c1 (stereo not drawn)", "7.00 to 8.22"],
  ["CC1=NN(c2ccccc2)C(=O)C1C(=O)Nc1ccc(F)cc1 (stereo not drawn)", "4.00 to 6.00"],
  ["CC1=NN(c2ccc(C3COC3)cc2)C(=O)C1C(=O)Nc1cccc(C(C)(F)F)c1 (stereo not drawn)", "7.00 to 8.22"],
  ["CC1=NN(c2cccc(C(=O)O)c2)C(=O)C1C(=O)Nc1cccc(-c2ncco2)c1 (stereo not drawn)", "7.00 to 8.22"],
  ["CC1=NN(c2ccccc2)C(=O)C1C(=O)Nc1cccc(-c2nnc[nH]2)c1 (stereo not drawn)", "6.00 to 7.00"]
]}

====

# Target System: ACSS2 (Homo sapiens, UniProt Q9NR19)
# Method: cell-based
pIC50: −log10 of the molar value.
Reported pIC50 values follow for various compounds

{"columns": ["Compound", "pIC50"],
 "data": [
  ["CC1=NN(c2ccc(OC3CCCC3)cc2)C(=O)C1C(=O)Nc1cccc(C(C)(F)F)c1 (centres unmarked)", "7.30 to 9.30"],
  ["CC1=NN(c2cccc(-c3ncco3)c2)C(=O)C1C(=O)Nc1cccc(-c2ccco2)c1 (centres unmarked)", "7.30 to 9.30"],
  ["COC(=O)c1cccc(N2N=C(C)C(C(=O)Nc3cccc(-c4cnccn4)c3)C2=O)c1 (centres unmarked)", "< 7.00"],
  ["COc1cccc(N2N=C(C)C(C(=O)Nc3cccc(-c4ncco4)c3)C2=O)c1 (centres unmarked)", "7.00 to 7.30"],
  ["COc1ccc(N2N=C(C)C(C(=O)Nc3cccc(C(C)(F)F)c3)C2=O)cc1-c1nccn1C (centres unmarked)", "7.30 to 9.30"]
]}

====

# Target System: ACSS2 (Homo sapiens, UniProt Q9NR19)
# Method: biochemical

{"columns": ["Molecule", "IC50"],
 "data": [
  ["N#Cc1ccc(OCCNC(=O)c2cccc(C(O)CO)c2)cc1 (stereo not shown)", "1000 to 100000 nM"],
  ["COc1c(-c2ccccc2)cc(N2N=C(C)C(C(=O)Nc3cccc(C(C)(F)F)c3)C2=O)cc1-c1ccccc1 (stereo not shown)", "6 to 100 nM"],
  ["CC1=NN(c2ccccc2)C(=O)C1C(=O)Nc1cccc(CC(C)C)c1 (stereo not shown)", "100 to 1000 nM"],
  ["CCc1cccc(NC(=O)C2C(=O)N(c3ccccc3)N=C2C)c1 (stereo not shown)", "6 to 100 nM"],
  ["Cc1c(C(=O)Nc2ccccc2)c(=O)n(-c2ccccc2)n1C", "> 100000 nM"],
  ["CC1=NN(c2cc(Br)cc(Cc3ccccc3Cl)c2)C(=O)C1C(=O)Nc1cccc(C(C)(F)F)c1 (stereo not shown)", "0.01 to 6 nM"],
  ["COC(=O)c1cccc(N2N=C(C)C(C(=O)Nc3cccc(C(C)(F)F)c3)C2=O)c1 (stereo not shown)", "0.01 to 6 nM"],
  ["CC1=NN(c2ccc(OC(F)(F)F)c(-c3ncco3)c2)C(=O)C1C(=O)Nc1cccc(-c2ccco2)c1 (stereo not shown)", "0.01 to 6 nM"],
  ["CC1=NN(c2ccccc2)C(=O)C1C(=O)Nc1cccc(C(C)(F)F)c1 (stereo not shown)", "0.01 to 6 nM"],
  ["CC1=NN(c2ccc(OC(F)F)cc2)C(=O)C1C(=O)Nc1cccc(C2COC2)c1 (stereo not shown)", "100 to 1000 nM"]
]}

====

# Target System: ACSS2 (Homo sapiens)
# Method: biochemical
Assay Metric: IC50

{"columns": ["Molecule", "Assay Metric", "Measured"],
 "data": [
  ["COc1cccc(N2N=C(C)C(C(=O)Nc3cccc(C(C)(F)F)c3)C2=O)c1 (centres unmarked) [compound 250]", "IC50", "0.01 to 6 nM"],
  ["COc1ccc(N2N=C(C)C(C(=O)Nc3cccc(C(C)(F)F)c3)C2=O)nc1 (centres unmarked) [compound 304]", "IC50", "0.01 to 6 nM"],
  ["CC1=NN(c2ccc(OC(F)F)cc2)C(=O)C1C(=O)Nc1cc(C(C)(F)F)ccc1CO (centres unmarked) [compound 459]", "IC50", "0.01 to 6 nM"],
  ["CC1=NN(c2cc(Br)cc(Cc3ccc(Cl)cc3)c2)C(=O)C1C(=O)Nc1cccc(C(C)(F)F)c1 (centres unmarked) [compound 388]", "IC50", "0.01 to 6 nM"],
  ["CC1=NN(c2cccc(CN)c2)C(=O)C1C(=O)Nc1cccc(C(C)(F)F)c1 (centres unmarked) [compound 335]", "IC50", "6 to 100 nM"],
  ["COc1ccc(N2N=C(C)C(C(=O)Nc3cccc(-c4ccco4)c3)C2=O)cc1 (centres unmarked) [compound 266]", "IC50", "0.01 to 6 nM"],
  ["CC1=NN(c2ccc(OC(F)F)c(-c3ncc(C)o3)c2)C(=O)C1C(=O)Nc1cccc(C(C)(F)F)c1 (centres unmarked) [compound 415]", "IC50", "0.01 to 6 nM"],
  ["CC1=NN(c2cccc(C(=O)O)c2)C(=O)C1C(=O)Nc1cccc(-c2cnccn2)c1 (centres unmarked) [compound 169]", "IC50", "6 to 100 nM"],
  ["CC(=O)c1cccc(NC(=O)C2C(=O)N(c3ccccc3)N=C2C)c1 (centres unmarked) [compound 183]", "IC50", "6 to 100 nM"],
  ["CC(=O)c1cccc(NC(=O)C2C(=O)N(c3ccc(C(=O)O)cc3)N=C2C)c1 (centres unmarked) [compound 120]", "IC50", "100 to 1000 nM"],
  ["CC1=NN(c2ccc(OC(F)F)c(-c3ccccn3)c2)C(=O)C1C(=O)Nc1cccc(C(C)(F)F)c1 (centres unmarked) [compound 438]", "IC50", "0.01 to 6 nM"],
  ["CC1=NN(c2ccc(OC(F)F)cc2F)C(=O)C1C(=O)Nc1cccc(C(C)(F)F)c1 (centres unmarked) [compound 456]", "IC50", "0.01 to 6 nM"],
  ["COc1cccc(N2N=C(C)C(C(=O)Nc3cccc(-c4ncc[nH]4)c3)C2=O)c1 (centres unmarked) [compound 248]", "IC50", "0.01 to 6 nM"],
  ["CC1=NN(c2ccccc2)C(=O)C1C(=O)Nc1cccc(CC(F)(F)F)c1 (centres unmarked) [compound 161]", "IC50", "6 to 100 nM"],
  ["CC1=NN(c2ccc(S(=O)(=O)N(C)C)cc2)C(=O)C1C(=O)Nc1cccc(-c2ncco2)c1 (centres unmarked) [compound 254]", "IC50", "100 to 1000 nM"],
  ["CCC(F)(F)c1cccc(NC(=O)C2C(=O)N(c3ccc(OC)c(-c4ccccc4)c3)N=C2C)c1 (centres unmarked) [compound 368]", "IC50", "0.01 to 6 nM"],
  ["CC1=NN(c2ccccc2)C(=O)C1C(=O)Nc1ccccn1 (centres unmarked) [compound 214]", "IC50", "> 100000 nM"],
  ["COc1ccc(N2N=C(C)C(C(=O)Nc3cccc(C(C)(F)F)c3)C2=O)cc1-c1ccc[n+]([O-])c1 (centres unmarked) [compound 417]", "IC50", "100 to 1000 nM"],
  ["COc1ccc(N2N=C(C)C(C(=O)Nc3cccc(C(C)(F)F)c3)C2=O)cc1O (centres unmarked) [compound 281]", "IC50", "0.01 to 6 nM"],
  ["CC1=NN(c2ccccc2)C(=O)C1C(=O)Nc1cccc(CN(C)C)c1 (centres unmarked) [compound 131]", "IC50", "1000 to 100000 nM"]
]}

Data origin, for the record: patent US10851064B2
